Cited source for all entries: ChEMBL document CHEMBL3988442

- Assay Remarks: microbe, parasite or virus in culture
- Experimental Setup: Mycobacterium tuberculosis, 96 h, read-out: pIC50 (converted)
Value Kind: log10 of IC50 (log10 of the value in µM)

> print(dat)
                                    molecule  experimental.value
 1           Cc1cc(C(=O)NCc2ccc(F)cc2)[nH]n1                2.12
 2       CCS(=O)(=O)N(C)CCCNc1ccc(C)c(C#N)n1                1.93
 3             Cc1ccc(F)c(CN2CC[C@H](N)C2)c1                2.35
 4                            NCCSCc1ccccc1F                2.44
 5             NCCn1cc(C(=O)NCCSC2CCCCC2)nn1                2.11
 6  COCCC(C)NC(=O)Nc1ccc(C#N)cc1 (stereo not drawn)                2.20
 7  CCCOC(=O)C(C)NC(=O)c1cccs1 (stereo not drawn)                2.46
 8  CC(C)c1cc(C(=O)N2CCN(Cc3ccsc3)CC2)n[nH]1                1.60
 9  C=C/C=c1\c(=C/C)oc2c(NCc3ccccc3)nc(CC)nc12                1.28
10              O=C(Nc1cc(Cl)ccc1F)C1=COCCO1                2.42

----------
Quick reference for IC50 among some compounds
- Assay Remarks: microbe, parasite or virus in culture
- Experimental Setup: Mycobacterium tuberculosis, 72 h, read-out: pIC50 (converted)
Value Kind: IC50

> print(dat)
                                   compound  experimental.value
1  Cc1c[nH]c(C(=O)NC2COc3ccccc3C2)n1 (configuration not stated)            > 501 µM
2                 CCOC(=O)Nc1ccc2c(c1)OCCO2            > 501 µM
3            CCc1nnc2n1CCN(C(=O)CN(CC)CC)C2           > 50.1 µM
4  Cc1nn(C2CCCC2)c2nc(C(C)(C)CN3CCN(C)CC3)[nH]c12           > 50.1 µM
5           CN(C)c1cc(Cn2cnc3sccc3c2=O)ccn1            > 501 µM
6                    c1ccc(NCCNc2ccccn2)cc1              230 µM
7          O=C(NCCO)c1cc2c(F)cc(Br)cc2[nH]1              257 µM

----------
- Assay Remarks: microbe, parasite or virus in culture
- Experimental Setup: Mycobacterium tuberculosis, 96 h, read-out: pIC50 (converted)
Quick reference for IC50 among some compounds
Value Kind: IC50 (µM)

> print(dat)
                                    compound  unit.label  result.operator  experimental.value
 1             CC(C)N(CCOc1cccc(F)c1)CC(N)=O          µM                =                 199
 2  O=c1oc(-c2ccc(F)cc2)nn1CC1CCCCO1 (stereo unspecified)          µM                >                50.1
 3  CC(OC(=O)c1ccc(C(F)(F)F)cc1)C(N)=O (stereo unspecified)          µM                =                 466
 4  O=C(NCC1CCN(C2CC2)C1)c1ccccc1F (stereo unspecified)          µM                =                 376
 5           CCc1noc(CNc2cc3c(cc2Cl)OCCO3)n1          µM                =                8.97
 6              CC(C)N(C)S(=O)(=O)NCCc1cccs1          µM                =                 206
 7              NC[C@]12C[C@H]1CCN2Cc1ccccc1          µM                =                 184
 8  Cc1cccc(C2(O)CCN(Cc3ccccc3N3CCCC3)CC2)c1          µM                =                20.7
 9                   CNC(=O)NCCc1csc2ccccc12          µM                >                50.1
10                 N#Cc1csc(CNCCOc2ccccc2)c1          µM                >                50.1
11  CN1[C@H](CN2CCCC2)C[C@@H]2CN(C(=O)c3cccn3C)CC[C@@H]21          µM                >                50.1
12           CNC(=O)C1CCN(C(=O)CCc2cccs2)CC1          µM                =                 111
13             Cc1cccc(OCCc2noc(C3CNC3)n2)c1          µM                =                 163
14                  Cc1ccc(C(N)=O)cc1NCC(C)C          µM                >                 501
15       Cc1noc(NC(=O)c2ccc(OC(F)(F)F)cc2)n1          µM                =                36.6
16               CCN(CCC(N)=O)Cc1cccc2c1OCO2          µM                =                 272
17  CCN1CCN(C(=O)C2CCCOC2)c2ccccc21 (stereo unspecified)          µM                =                 276
18  CC1CN(CCC(=O)NCc2cccs2)CCCO1 (stereo unspecified)          µM                >                 501
19  O=C(C1Cc2cc(Cl)ccc2O1)N1CCOCC1 (stereo unspecified)          µM                >                 501
20  COc1ccc(-c2nc(CN(C)Cc3nncn3C)c(C)o2)c(C)c1C          µM                =                10.1
21  O=C1CCC2(CNC(=O)C3CC3)CCCC=C2N1 (stereo unspecified)          µM                >                 501
22              CC(C)(C)OC(=O)NC1CC2(CNC2)C1          µM                >                 501
23     CN(Cc1ccc(Br)cc1)C(=O)CSc1nc(N)n[nH]1          µM                >                 501
24       CC(C)c1nnc(CNc2ccc(SC(F)(F)F)cc2)o1          µM                =                18.9
25      CCN(C)c1ccc(CNC(=O)CCn2cc(C)cn2)cc1F          µM                >                50.1
26  Cc1ccc(CN2CC[C@H](c3nnc(COc4ccc(F)cc4)o3)C2)o1          µM                =                37.2
